Reference source for all entries: patent US9517989B2

# target_or_system: CB2 receptor (UniProt P47936)
Please respond with YES when measured Ki is strictly beneath 30 nM, and with NO in all other cases.

> print(dat)
                                   compound  classification
1  CC(C)[C@H]1CC[C@@H](CO)C[C@H]1c1c(O)cc(C23CC4CC(CC(C4)C2)C3)cc1O             YES
2  C=C(C)C1CCC(O)CC1c1c(O)cc(C(C)(C)CCCCCC)cc1O (stereo not drawn)              NO
3  C=C(C)[C@H]1CCC(CO)=C[C@@H]1c1c(O)cc(C2(CCCCCN=[N+]=[N-])CCC2)cc1O             YES
4  C=C(C)[C@H]1CCC(C)=C[C@@H]1c1c(O)cc(CCCCC)cc1O [(+)-CBD, Cannabidiol, reference compound]              NO
5  C=C(C)[C@H]1CCC(COC(C)=O)=C[C@@H]1c1c(O)cc(C(C)(C)CCCCCC)cc1O              NO
6  C=C(C)[C@@H]1CCC(COC(C)=O)=C[C@H]1c1c(O)cc(C(C)(C)CCCCCCBr)cc1O              NO

###

# target_or_system: CB2 receptor (UniProt P47936)
pKi: −log10 of the molar value.
Our labelling divides records by pKi into ranges: low (below 7), mid (7 to below 8), high (8 or more)

> print(dat)
                                    compound  classification
 1  CCCCCc1cc(O)c([C@@H]2C=C(C)[C@@H]3C[C@H]2C3(C)C)c(O)c1 [Compound 43.1, reference compound]             low
 2  C=C(C)[C@@H]1CCC(C)=C[C@H]1c1c(O)cc(CCCCC)cc1O [(−)-CBD, Cannabidiol, reference compound]             low
 3  C=C(C=O)[C@@H]1CC[C@@H](CO)C[C@H]1c1c(O)cc(C23CC4CC(CC(C4)C2)C3)cc1O             mid
 4  C=C(CO)[C@@H]1CC[C@@H](CO)C[C@H]1c1c(O)cc(C23CC4CC(CC(C4)C2)C3)cc1O             low
 5  C=C(C)[C@H]1CCC(COC(C)=O)=C[C@@H]1c1c(O)cc(C(C)(C)CCCCBr)cc1O             mid
 6  CC1=C[C@H](c2c(O)cc(C3(CCCCCBr)CCCC3)cc2O)[C@@H]2C[C@H]1C2(C)C            high
 7  CCCCCc1cc(O)c([C@H]2C=C(C)[C@H]3C[C@@H]2C3(C)C)c(O)c1 [Compound 40.1, reference compound]             mid
 8  C=C(C)[C@H]1CCC(CO)=C[C@@H]1c1c(O)cc(C2(CCCCCBr)CCCC2)cc1O            high
 9  C=C(C)[C@@H]1CC[C@@H](O)C[C@H]1c1c(O)cc(C23CC4CC(CC(C4)C2)C3)cc1O             low
10  C=C(C)[C@H]1CCC(CO)=C[C@@H]1c1c(O)cc(C23CC4CC(CC(C4)C2)C3)cc1O             mid
11  C=C(C)[C@H]1CCC(CO)=C[C@@H]1c1c(O)cc(C(C)(C)CCCCN2CCOCC2)cc1O            high
12  C=C(C)[C@@H]1CCC(=O)C[C@H]1c1c(O)cc(C23CC4CC(CC(C4)C2)C3)cc1O             low
13  C=C(C)[C@@H]1CC[C@@H](C(N)=O)C[C@H]1c1c(O)cc(C(C)(C)CCCCCC)cc1O             low
14  C=C(C)[C@H]1CCC(COC(C)=O)=C[C@@H]1c1c(O)cc(C2(CCCCCBr)CCCC2)cc1O             mid
15  CC1=C[C@H](c2c(O)cc(C3(CCCCBr)CCC3)cc2O)[C@@H]2C[C@H]1C2(C)C            high
16  C=C(C)[C@@H]1CCC(=O)C[C@H]1c1c(O)cc(C(C)(C)CCCCCC)cc1O             mid
17  CC1=C[C@H](c2c(O)cc(C3(CCCCCBr)CCC3)cc2O)[C@@H]2C[C@H]1C2(C)C            high
18  C=C(C)[C@H]1CCC(CO)=C[C@@H]1c1c(O)cc(C2(CCCCCC#N)CCC2)cc1O            high

###

# target_or_system: CB1 (Rattus norvegicus)
# assay_name: CB1 receptor binding affinity (Ki)
pKi: −log10 of the molar value.
property_name: pKi

> print(dat)
                                    molecule         target.or.system  qualifier.symbol  reported.result
 1  C=C(C)[C@@H]1CC[C@@H](O)C[C@H]1c1c(O)cc(C23CC4CC(CC(C4)C2)C3)cc1O [Compound 55]  CB1 (Rattus norvegicus)                 =             5.62
 2  CCCCCCC1(c2cc(O)c([C@H]3C=C(C)[C@H]4C[C@@H]3C4(C)C)c(O)c2)SCCS1 [Compound 40.6]  CB1 (Rattus norvegicus)                 =             7.72
 3  C=C(C)[C@H]1CCC(COC(C)=O)=C[C@@H]1c1c(O)cc(C2(CCCCCC)CC2)cc1O [Compound 3.3]  CB1 (Rattus norvegicus)                 =             7.06
 4  C=C(C)[C@H]1CCC(COC(C)=O)=C[C@@H]1c1c(O)cc(C(C)(C)CCCBr)cc1O [Compound 3.10]  CB1 (Rattus norvegicus)                 =             6.21
 5  C=C(C)[C@H]1CCC(CO)=C[C@@H]1c1c(O)cc(C2(CCCCCC)CCCC2)cc1O [Compound 4.4]  CB1 (Rattus norvegicus)                 =             7.11
 6  CC1=C[C@H](c2c(O)cc(C3(CCCCCBr)CCCC3)cc2O)[C@@H]2C[C@H]1C2(C)C [Compound 40.7]  CB1 (Rattus norvegicus)                 =             8.19
 7  C=C(C)[C@H]1CCC(CO)=C[C@@H]1c1c(O)cc(C2(CCCCCC)SCCS2)cc1O [Compound 4.6]  CB1 (Rattus norvegicus)                 =             7.15
 8  C=C(C)[C@@H]1CCC(=COC)C[C@H]1c1c(O)cc(C23CC4CC(CC(C4)C2)C3)cc1O [Compound 49.2]  CB1 (Rattus norvegicus)                 =             5.75
 9  C=C(C)[C@@H]1CCC(COC(C)=O)=C[C@H]1c1c(O)cc(C(C)(C)CCCCCCBr)cc1O [Compound 31.13]  CB1 (Rattus norvegicus)                 =             6.69
10  C=C(C)[C@H]1CCC(CO)=C[C@@H]1c1c(O)cc(C2(CCCCCN=[N+]=[N-])CCC2)cc1O [Compound 37]  CB1 (Rattus norvegicus)                 =             7.66
11  C=C(C)[C@H]1CCC(COC(C)=O)=C[C@@H]1c1c(O)cc(C2(CCCCCC)CCCC2)cc1O [Compound 3.4]  CB1 (Rattus norvegicus)                 =             6.56
12  C=C(C)[C@@H]1CC[C@@H](C(N)=O)C[C@H]1c1c(O)cc(C(C)(C)CCCCCC)cc1O [Compound 59.1]  CB1 (Rattus norvegicus)                 <             6.00
13  C=C(C)[C@H]1CCC(COC(C)=O)=C[C@@H]1c1c(O)cc(C23CC4CC(CC(C4)C2)C3)cc1O [Compound 3.9]  CB1 (Rattus norvegicus)                 =             6.73
14  C=C(C)[C@H]1CCC(COC(C)=O)=C[C@@H]1c1c(O)cc(C2(CCCCCBr)CCCC2)cc1O [Compound 3.7]  CB1 (Rattus norvegicus)                 =             7.29
15  C=C(C)[C@@H]1CC[C@@H](C(=O)O)C[C@H]1c1c(O)cc(C(C)(C)CCCCCC)cc1O [Compound 58.2]  CB1 (Rattus norvegicus)                 <             6.00

###

# target_or_system: CB1 (Rattus norvegicus, UniProt P20272)
# Sequence (P20272 whole entry): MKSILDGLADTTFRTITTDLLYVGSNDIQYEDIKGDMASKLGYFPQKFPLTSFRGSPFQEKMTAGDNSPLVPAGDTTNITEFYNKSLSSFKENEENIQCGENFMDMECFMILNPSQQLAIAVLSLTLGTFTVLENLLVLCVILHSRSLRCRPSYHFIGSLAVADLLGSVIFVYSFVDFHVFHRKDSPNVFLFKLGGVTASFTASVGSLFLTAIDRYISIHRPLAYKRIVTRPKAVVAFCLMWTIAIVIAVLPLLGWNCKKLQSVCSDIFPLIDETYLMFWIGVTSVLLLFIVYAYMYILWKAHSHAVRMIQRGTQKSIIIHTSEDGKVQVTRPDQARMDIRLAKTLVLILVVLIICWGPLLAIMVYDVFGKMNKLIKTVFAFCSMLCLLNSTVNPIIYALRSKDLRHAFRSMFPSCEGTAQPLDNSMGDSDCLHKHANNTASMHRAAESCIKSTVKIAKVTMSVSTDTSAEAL
# assay_name: CB1 receptor binding affinity (Ki)
pKi: −log10 of the molar value.
Reported values of pKi for individual entries
property_name: pKi

> print(dat)
                                   molecule  property.name  reported.result
1  C=C(C)[C@H]1CCC(CO)=C[C@@H]1c1c(O)cc(C23CC4CC(CC(C4)C2)C3)cc1O [Compound 4.9]            pKi             6.35
2  C=C(C)[C@H]1CCC(COC(C)=O)=C[C@@H]1c1c(O)cc(C(C)(C)CCCCCBr)cc1O [Compound 3.12]            pKi             7.54
3  C=C(C=O)[C@@H]1CC[C@@H](CO)C[C@H]1c1c(O)cc(C23CC4CC(CC(C4)C2)C3)cc1O [Compound 53.2]            pKi             5.85
4  CCCCCCC1(c2cc(O)c([C@H]3C=C(C)[C@H]4C[C@@H]3C4(C)C)c(O)c2)CCCC1 [Compound 40.4]            pKi             7.64
5  C=C(C)[C@H]1CCC(COC(C)=O)=C[C@@H]1c1c(O)cc(C2(/C=C\CCCC)CCCC2)cc1O [Compound 3.5]            pKi             7.15
6  CCCC/C=C\C1(c2cc(O)c([C@H]3C=C(C)[C@H]4C[C@@H]3C4(C)C)c(O)c2)CCCC1 [Compound 40.5]            pKi             7.87
7  CCCCCc1cc(O)c([C@H]2C=C(C)[C@H]3C[C@@H]2C3(C)C)c(O)c1 [Compound 40.1, reference compound]            pKi             6.17
